Values from ChEMBL document CHEMBL4002602

# assay_system: Adenosine receptor A1 (Homo sapiens)
# Sequence (whole entry): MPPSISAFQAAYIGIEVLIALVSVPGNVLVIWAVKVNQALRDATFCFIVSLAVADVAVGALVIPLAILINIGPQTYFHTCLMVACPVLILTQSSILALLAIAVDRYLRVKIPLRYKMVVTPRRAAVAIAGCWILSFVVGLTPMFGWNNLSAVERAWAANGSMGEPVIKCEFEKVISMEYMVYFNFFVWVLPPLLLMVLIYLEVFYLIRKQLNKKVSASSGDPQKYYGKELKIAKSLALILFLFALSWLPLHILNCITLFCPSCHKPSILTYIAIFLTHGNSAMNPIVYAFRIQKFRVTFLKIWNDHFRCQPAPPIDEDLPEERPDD
# test_details: Displacement of [3H]-DPCPX from human adenosine A1 receptor expressed in HEK293 cell membranes at 1 uM measured after 90 mins relative to control
Hi, to clarify the labels: Satisfied covers inhibition from 40% upward, Not satisfied covers anything below 40%.

Examples with answers:
compound_smiles: COc1ccc(N2CCOCC2)c2sc(NC(=O)C(C)(C)Oc3ccc(F)cc3)nc12
category_label: Not satisfied
//
compound_smiles: COc1ccc(N2CCOCC2)c2sc(NC(=O)C(C)(C)Oc3c(F)cccc3F)nc12
category_label: Not satisfied
//
compound_smiles: COc1ccc(N2CCOCC2)c2sc(NC(=O)C(C)(C)Oc3ccc(F)c(F)c3)nc12
category_label: Not satisfied
//
compound_smiles: COc1cnc(N2CCOCC2)c2sc(NC(=O)C(C)(C)Oc3ccc(F)c(F)c3)nc12
category_label: Satisfied
//
compound_smiles: COc1ccc(N2CCOCC2)c2sc(NC(=O)C(C)(C)Oc3ccc4c(c3)OCO4)nc12
category_label: Not satisfied
//
compound_smiles: COCCOc1cccc(OC(C)(C)C(=O)Nc2nc3c(OC)cnc(N4CCOCC4)c3s2)c1
category_label: Not satisfied

Task: Textbook exercise: given the entry COc1ccc(OC(C)(C)C(=O)Nc2nc3c(OC)ccc(N4CCOCC4)c3s2)cc1OC , state whether its inhibition is greater than or equal to 40%.
Result: Not satisfied

Task: Determine whether measured inhibition meets or exceeds 40% for COc1ccc(N2CCOCC2)c2sc(NC(=O)C(C)(C)Oc3cccc(F)c3)nc12
Result: Satisfied

Task: Textbook exercise: given the entry COc1cnc(N2CCOCC2)c2sc(NC(=O)C(C)(C)Oc3c(F)cccc3F)nc12 , state whether its inhibition is greater than or equal to 40%.
Result: Not satisfied
